Data origin: patent US6908930B2

- TESTED SYSTEM: EGFR (Homo sapiens, UniProt P00533)
- Construct: A431 […] cell lysate is stored at −80° C; host or cells: A431 cell lysate
- Sequence (P00533 25-1210): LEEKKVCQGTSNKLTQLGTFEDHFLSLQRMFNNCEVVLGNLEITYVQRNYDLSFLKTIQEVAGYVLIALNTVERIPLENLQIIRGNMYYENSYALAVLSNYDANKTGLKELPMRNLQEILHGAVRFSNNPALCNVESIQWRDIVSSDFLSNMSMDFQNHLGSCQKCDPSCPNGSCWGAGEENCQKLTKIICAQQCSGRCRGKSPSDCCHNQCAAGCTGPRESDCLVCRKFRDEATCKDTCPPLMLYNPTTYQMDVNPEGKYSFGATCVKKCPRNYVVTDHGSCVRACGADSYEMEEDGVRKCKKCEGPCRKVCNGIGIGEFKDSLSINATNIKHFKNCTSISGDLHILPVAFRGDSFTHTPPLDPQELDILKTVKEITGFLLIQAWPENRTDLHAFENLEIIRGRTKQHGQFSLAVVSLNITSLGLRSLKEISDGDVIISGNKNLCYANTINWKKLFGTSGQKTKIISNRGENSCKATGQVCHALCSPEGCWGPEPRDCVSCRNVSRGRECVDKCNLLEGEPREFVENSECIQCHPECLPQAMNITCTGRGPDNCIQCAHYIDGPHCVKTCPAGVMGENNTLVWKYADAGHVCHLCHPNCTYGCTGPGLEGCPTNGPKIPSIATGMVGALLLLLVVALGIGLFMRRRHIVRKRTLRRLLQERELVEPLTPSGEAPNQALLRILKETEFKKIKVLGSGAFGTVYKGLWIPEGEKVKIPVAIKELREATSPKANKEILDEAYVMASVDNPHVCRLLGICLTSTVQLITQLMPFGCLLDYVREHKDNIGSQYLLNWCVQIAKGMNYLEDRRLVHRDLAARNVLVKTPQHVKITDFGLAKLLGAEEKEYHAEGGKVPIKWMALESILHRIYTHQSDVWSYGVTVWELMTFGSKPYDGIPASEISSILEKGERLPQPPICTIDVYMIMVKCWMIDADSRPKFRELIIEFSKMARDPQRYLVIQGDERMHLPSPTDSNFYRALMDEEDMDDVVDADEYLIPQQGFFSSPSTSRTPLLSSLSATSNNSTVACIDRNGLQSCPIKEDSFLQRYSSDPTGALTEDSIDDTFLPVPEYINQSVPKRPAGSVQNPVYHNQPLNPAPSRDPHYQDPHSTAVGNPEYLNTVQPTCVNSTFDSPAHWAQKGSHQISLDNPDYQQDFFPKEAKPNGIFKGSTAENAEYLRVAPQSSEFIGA
- ASSAY DETAILS: Assay for modulation of EGFR activity (ELISA)
- Type: biochemical
Reported IC50 values for a set of compounds
Unit nM implied. Number only.

- ENTRY SMILES: "Cc1c(C(=O)N2CCN(C)CC2)c[nH]c1/C=C1\\C(=O)Nc2ncnc(Nc3ccc(F)c(Cl)c3)c21"
  IC50, nM: 450
- ENTRY SMILES: "Cc1cc(C(=O)N2CCOCC2)[nH]c1/C=C1\\C(=O)Nc2ncnc(Nc3ccc(F)c(Cl)c3)c21"
  IC50, nM: 160

Return reported IC50. Input compound: Cc1cc(C(=O)N2CCN(C)CC2)[nH]c1/C=C1\C(=O)Nc2ncnc(Nc3ccc(F)c(Cl)c3)c21 4

* * *

The entries below are paired with their reported pIC50.
- TESTED SYSTEM: EGFR (Homo sapiens, UniProt P00533)
- Construct: A431 […] cell lysate is stored at −80° C; host or cells: A431 cell lysate
- ASSAY DETAILS: Assay for modulation of EGFR activity (ELISA)
- Type: biochemical
- MEASUREMENT CONDITIONS: read-out: bio EGFR IC50
pIC50 (log units): -log10 of the concentration in mol/L.

Write down pIC50 measured for item O=C1Nc2ncnc(Nc3ccc(F)c(Cl)c3)c2/C1=C/c1ccc(C(=O)N2CCOCC2)[nH]1 [Formula 33] 6.05

* * *

Entries annotated with measured IC50
- TESTED SYSTEM: HER-2 (Homo sapiens, UniProt P04626)
- Construct: P00533 (Epidermal growth factor receptor)
- Sequence (P04626 720-987 limits assumed): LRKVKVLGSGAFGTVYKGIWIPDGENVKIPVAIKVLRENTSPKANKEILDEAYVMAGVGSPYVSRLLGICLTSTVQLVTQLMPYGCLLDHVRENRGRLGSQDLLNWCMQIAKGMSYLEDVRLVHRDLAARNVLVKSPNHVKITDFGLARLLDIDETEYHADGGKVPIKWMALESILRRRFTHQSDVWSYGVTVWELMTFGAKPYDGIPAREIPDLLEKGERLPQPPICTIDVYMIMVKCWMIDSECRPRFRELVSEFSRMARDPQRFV
- ASSAY DETAILS: Assay for modulation of HER-2 activity in whole cells (ELISA)
- MEASUREMENT CONDITIONS: EGFR/HER-2chimera/#T3-C7 cell lines, EGF stimulated; read-out: HER-2 kinase IC50

Example molecules with recorded IC50:
- ENTRY SMILES: "Cc1nc[nH]c1C=C1C(=O)Nc2ncnc(N3CCN(C)CC3)c21"
  TESTED SYSTEM: "HER-2 (Homo sapiens, UniProt P04626)"
  IC50: "> 100 µM"
- ENTRY SMILES: "Cc1cc(C(=O)N2CCN(C)CC2)[nH]c1/C=C1\\C(=O)N(C)c2ncnc(Nc3ccc(F)c(Cl)c3)c21"
  TESTED SYSTEM: "HER-2 (Homo sapiens, UniProt P04626)"
  IC50: "> 20 µM"

Fetch value of IC50 on HER-2 (Homo sapiens, UniProt P04626) for Cc1cc(C(=O)NCCN2CCOCC2)[nH]c1C=C1C(=O)Nc2ncnc(N3CCN(C)CC3)c21 . > 100 µM

* * *

- TESTED SYSTEM: EGFR (Homo sapiens, UniProt P00533)
- Construct: A431 […] cell lysate is stored at −80° C; host or cells: A431 cell lysate
- ASSAY DETAILS: Assay for modulation of EGFR activity (ELISA)
- Format: biochemical
- MEASUREMENT CONDITIONS: read-out: bio EGFR IC50
METRIC: IC50

- MOLECULE: "Cc1c(C(=O)N2CCOCC2)c[nH]c1/C=C1\\C(=O)Nc2ncnc(Nc3ccc(F)c(Cl)c3)c21"
  TESTED SYSTEM: "EGFR (Homo sapiens, UniProt P00533)"
  IC50: "210 nM"
- MOLECULE: "Cc1cc(C(=O)N2CC(C)N(C)C(C)C2)[nH]c1/C=C1\\C(=O)Nc2ncnc(Nc3ccc(F)c(Cl)c3)c21 (stereo not drawn)"
  TESTED SYSTEM: "EGFR (Homo sapiens, UniProt P00533)"
  IC50: "< 156 nM"

Please look at the following molecule next.
Supply reported IC50 belonging to this molecule: Cc1[nH]c(/C=C2\C(=O)N(C)c3ncnc(Nc4ccc(F)c(Cl)c4)c32)c(C)c1CCCN1CCOCC1 > 20000 nM

* * *

- TESTED SYSTEM: EGFR (Homo sapiens, UniProt P00533)
- Construct: A431 […] cell lysate is stored at −80° C; host or cells: A431 cell lysate
- ASSAY DETAILS: Assay for modulation of EGFR activity (ELISA)
- Type: biochemical
- MEASUREMENT CONDITIONS: read-out: bio EGFR IC50
Binary label based on IC50 with cut-off 500 nM: below gives rule met, not below gives rule not met.

- ENTRY SMILES: "CCN1CCN(C(=O)c2cc(C)c(/C=C3\\C(=O)Nc4ncnc(Nc5ccc(F)c(Cl)c5)c43)[nH]2)CC1"
  CLASSIFICATION: "rule met"
- ENTRY SMILES: "Cc1nc[nH]c1C=C1C(=O)Nc2ncnc(N3CCOCC3)c21"
  CLASSIFICATION: "rule not met"
- ENTRY SMILES: "Cc1cc(C)c(/C=C2\\C(=O)N(C)c3ncnc(Nc4ccc(F)c(Cl)c4)c32)[nH]1"
  CLASSIFICATION: "rule not met"
- ENTRY SMILES: "Cc1cc(C(=O)N2CCOCC2)[nH]c1/C=C1\\C(=O)N(C)c2ncnc(Nc3ccc(F)c(Cl)c3)c21"
  CLASSIFICATION: "rule not met"
- ENTRY SMILES: "Cc1[nH]c(/C=C2\\C(=O)Nc3ncnc(Nc4ccc(F)c(Cl)c4)c32)c(C)c1C(=O)N1CCN(C)CC1"
  CLASSIFICATION: "rule not met"

Consider the molecule C#Cc1cccc(Nc2ncnc3c2C(=Cc2[nH]c(C(=O)NCCN4CCOCC4)cc2C)C(=O)N3)c1 . Is its IC50 strictly less than 500 nM? rule met

Strictly below 500 nM in IC50? Cc1cc(C)c(C=C2C(=O)Nc3ncnc(Nc4ccc(F)c(Cl)c4)c32)[nH]1 rule met
